# Test system: JEG-3
# test.protocol: Confirmatory qHTS for gynecologic anti-cancer compounds from libraries of approved drugs and bioactive compounds; note: nearly all actives have a fitted effect of over 55% in size
# settings: gynecologic cancer cell panel viability, ATPlite luminescence, 48 h; series mostly up to 57.6 µM
Results filed as inconclusive are left out. Activity calls are given as the source filed them. Calls come from the whole dose curve; as a rule, active = well fitted cell-killing curve with a large enough effect; inconclusive = small, poorly fitted or top-dose-only effect, or effect the other way; inactive = no such curve, though single readings can be large or run the other way.
Write down one outcome, taken from Yes for active, No for inactive

These recorded examples may help you get a feel for the data.
- molecule: "Nc1ccccc1NC(=O)c1ccc(CNC(=O)OCc2cccnc2)cc1"
  system.under.test: "JEG-3"
  class.assignment: "Yes"
- molecule: "O=c1cc(CN2CCOCC2)occ1OCCCCCSc1ccnc2cc(C(F)(F)F)ccc12"
  system.under.test: "JEG-3"
  class.assignment: "Yes"
- molecule: "CCC(=O)N1CCN(c2ccc(-n3c(=O)ccc4cnc5ccc(-c6cnc7ccccc7c6)cc5c43)cc2C(F)(F)F)CC1"
  system.under.test: "JEG-3"
  class.assignment: "Yes"
- molecule: "CC[C@@]1(O)C(=O)OCc2c1cc1n(c2=O)Cc2c-1nc1ccccc1c2/C=N/OC(C)(C)C"
  system.under.test: "JEG-3"
  class.assignment: "Yes"
- molecule: "Nc1ncn([C@@H]2O[C@H](CO)[C@@H](O)[C@H]2O)c(=O)n1"
  system.under.test: "JEG-3"
  class.assignment: "No"
- molecule: "Cc1ccc(C(N)=O)cc1Nc1nccc(-c2cn(C(C)C)c3cnccc23)n1"
  system.under.test: "JEG-3"
  class.assignment: "Yes"
- molecule: "CC(Oc1cc(-n2cnc3ccc(CN4CCN(C)CC4)cc32)sc1C(N)=O)c1ccccc1C(F)(F)F (centres undefined)"
  system.under.test: "JEG-3"
  class.assignment: "Yes"
- molecule: "Nc1nc(=S)c2[nH]cnc2[nH]1"
  system.under.test: "JEG-3"
  class.assignment: "Yes"

With those in mind, consider the next molecule.
Ask: Name the outcome recorded for CNC(=O)CN1CCC(Oc2cc3c(Nc4cccc(Cl)c4F)ncnc3cc2OC)CC1 in the assay.
Reply: No

###

# Tested on: JEG-3
# test.protocol: Confirmatory qHTS for gynecologic anti-cancer compounds from libraries of approved drugs and bioactive compounds; note: nearly all actives have a fitted effect of over 55% in size
# settings: gynecologic cancer cell panel viability, ATPlite luminescence, 48 h; series mostly up to 57.6 µM
Inconclusive results are not listed. Activity calls are given as the source filed them. Calls come from the whole dose curve; as a rule, active = well fitted cell-killing curve with a large enough effect; inconclusive = small, poorly fitted or top-dose-only effect, or effect the other way; inactive = no such curve, though single readings can be large or run the other way.
Write down one outcome, taken from active, inactive

Ask: Name the outcome recorded for COc1cc2c(cc1-c1c(C)noc1C)ncc1[nH]c(=O)n(C(C)c3ccccn3)c12 (configuration not stated) in the assay.
Reply: active

Ask: Now give it for CCS(=O)(=O)c1cccc(-c2cc(C(=O)NC3CCN(C)CC3)c(C)c3[nH]c4ncc(C)cc4c23)c1 too.
Reply: active

Ask: Now give it for O=c1[nH]c(=O)n([C@H]2C[C@H](O)[C@@H](CO)O2)cc1Br too.
Reply: inactive

Ask: Now give it for Nc1ccccc1NC(=O)c1ccc(CNc2nccc(-c3cccnc3)n2)cc1 too.
Reply: active

Ask: Now give it for CCc1nc(C(N)=O)c(Nc2ccc(N3CCC(N4CCN(C)CC4)CC3)c(OC)c2)nc1NC1CCOCC1 too.
Reply: inactive

Ask: Now give it for Cc1cc(C(=O)N2CCN(c3cccc(Cl)c3)CC2)n(-c2ccccc2)n1 too.
Reply: active

###

# System: JEG-3
# test.protocol: Confirmatory qHTS for gynecologic anti-cancer compounds from libraries of approved drugs and bioactive compounds; note: nearly all actives have a fitted effect of over 55% in size
# settings: gynecologic cancer cell panel viability, ATPlite luminescence, 48 h; series mostly up to 57.6 µM
Results filed as inconclusive are left out. Calls of active or inactive are those of the source. Calls come from the whole dose curve; as a rule, active = well fitted cell-killing curve with a large enough effect; inconclusive = small, poorly fitted or top-dose-only effect, or effect the other way; inactive = no such curve, though single readings can be large or run the other way.
Write down one outcome, taken from TRUE for active, FALSE for inactive

These recorded examples may help you get a feel for the data.
- compound: "Cc1cnc(Nc2cccc(CN3CCOCC3)c2)nc1Nc1cccc(S(=O)(=O)NC(C)(C)C)c1"
  class.assignment: "TRUE"
- compound: "CC(C)C[C@H](NC(=O)[C@H](Cc1ccccc1)NC(=O)c1cnccn1)B(O)O"
  class.assignment: "TRUE"

With those in mind, consider the next compound.
Ask: Name the outcome recorded for CCN1CCN(Cc2ccc(Nc3ncc(F)c(-c4cc(F)c5nc(C)n(C(C)C)c5c4)n3)nc2)CC1 in the assay.
Reply: TRUE
